# assay-notes: Tmax in ICR mouse at 50 mg/kg, ip after 0.08 to 24 hrs by HPLC-MS/MS analysis
# Type: ADME, organism-based
# particulars: in vivo
recorded-metric: Tmax (min)
Use min as the unit, but write only the number.

Request: Provide Tmax value for the following molecule: COc1ccc(-c2cc3c([nH]c(=O)n3-c3cc(OC)c(OC)c(OC)c3)c(C(N)=O)n2)cc1O
Response: 13.8

###

# System: HCT-116
# assay-notes: Antiproliferative activity against human HCT116 cells assessed as reduction in cell viability after 48 hrs by MTT assay
# Type: functional, cell-based
# particulars: HCT-116, 48 h
recorded-metric: pIC50
Just so you know, pIC50 here is -log10 of the concentration in molar units; reply with that number alone.

Recorded pIC50, per entry:
compound	pIC50
COc1ccc(-c2cc3c(cn2)[nH]c(=O)n3-c2cc(OC)c(OC)c(OC)c2)cc1	6.08
COc1cc2c(c(OC)c1OC)-c1ccc(OC)c(=O)cc1[C@@H](NC(C)=O)CC2 [COLCHICINE]	8.30
COc1ccc(-c2cc3c(cn2)n(CC(N)=O)c(=O)n3-c2cc(OC)c(OC)c(OC)c2)cc1O	5.05
COc1ccc(-c2cc3c([nH]c(=O)n3-c3cc(OC)c(OC)c(OC)c3)c(C(N)=O)n2)cc1O	6.77
COc1ccc(-c2cc3c([nH]c(=O)n3-c3cc(OC)c(OC)c(OC)c3)c(C(N)=O)n2)cc1C(=O)O	5.13

Now, please, on to the next compound.
Request: State, for HCT-116, measured pIC50 of the compound listed here: COc1ccc(-c2cc3c(cn2)[nH]c(=O)n3-c2cc(OC)c(OC)c(OC)c2)cc1F
Response: 6.04
